Test system: gene editing with dCas9
Assay: Screen of 322 new SSAP proteins, gene editing activity with dCas9 (Table 5)
Type: cell-based
Details: normalized
REPORTED PROPERTY: dCas9 with SSAP activity (normalized)

Answered examples (4):
- MOLECULE: "SSAP_284: SEQ ID NO: 453; Paenibacillus sp. VMFN-D1 (protein, listed as Paenibacillus sp.) AKALLENKLQERAAGASTPSTQGTSLKALLNSPAIKKRFDELLDKRSAQYMTSIVNLYNSDAMLQKAEPMSVISSCIVAATLDLPVDKNLGYAWIVPYSGKAQFQLGYKGYIQLALRTGQYKAINVIEVYEGELVKWNPLTEALELDFEKRKSDAVIGYAGYFELINGFRKSVYWTREQIESHRKKFSKSDFGWKKDYDAMAKKTIIRNMLSKWGILSIEMQDAYSKEIEAIPPLNNENEEDPPIDLTPEDYRVGDEPQDGKEQGEMNFE"
  dCas9 with SSAP activity (normalized): "−1.172"
- MOLECULE: "SSAP_49: SEQ ID NO: 218 (protein) TNNQLATQTKRNITTDPSLLTGADIKKYFDPQNLLTEKQVGQALALCKGRNLNPFANEVYIVAYTNRNGGKEFSLIVSKEAFLKRAAQCKDYEGFEAGVVVVDSEGVMHERKGAIMLPEDTLIGGWARVHRKNFKVPVEIVVSREEYDKKQSTWNTMPATMIRKVALVNALREAFPEDLGNMYTEDDGGETFDRIKDVTPQESREDVVARKMAEIEQFNKEQETNHADPEPAQTEETIQGELLDGELEY"
  dCas9 with SSAP activity (normalized): "−0.289"
- MOLECULE: "SSAP_184: SEQ ID NO: 353; Streptomyces scabiei (protein, listed as Streptomyces scabiei) DADRMARIALTLIRKNPDLATCSGESFLGALMTCSQLGFEPGSPTQEAFIVPYKGEATFQLGYQGMVTLFYQHPMASSVKVETVRENDYFEHEEGLEEKLVHRPCKTGPRGKAIAYYSVARLINGGRTFKVMYPAEIEERREKLPSKNSPAWRNSYDEMAKKTVLRNHFKALPKSAELARAMAHDGTVRTDWQPDAIDVPPEYLSEPQRPELGTGSTQ"
  dCas9 with SSAP activity (normalized): "−0.482"
- MOLECULE: "SSAP_130: SEQ ID NO: 299; Peptoanaerobacter stomatis (protein, listed as Peptoanaerobacter stomatis) GAKELIQKKQENKQISPTSNMNMLLQSMAGAIKKALPAQINSERFQRVALTAFSSNQKLQQCDPISFLAAMMQSAQLGLEPNTPLGQAYLIPYGKQVQFQVGYKGLLELAQRSGQFKSIYSHEVRENDEFEMEYGLNQKLVHKPNLKQERGEVIGYYACYHLTNGGESMFFMTKDEIINFGKSKSKTFNNGPWQTDFDAMAKKTVLKQLLKYAPLSIESQKFMSMDETVKSDISANMDEINNDTVDFEVDIQTGEVINDIVVENTNEDEAN"
  dCas9 with SSAP activity (normalized): "−0.774"

Please examine the following record next.
Lookup: Param item = SSAP_85: SEQ ID NO: 254 (protein) TASKQTDIFSFVSGGEDITITLADIKNYFCANATDQECVLFGQLCKANGLNPWLKEAYLIKYDKNAPAAMVTGKDAYMKRANEHPAFDGYEAGVKVYLPDVGQVEYREGTAYYEDLGEQLIGGYAKVYRKDRSRPYYEEVPLKEYDTKQSKWKTSPATMIRKVALVHALREAFPTNIQGMYDADETPYAADYEGSFREMDDPTPAPSMRGRIAPAPVADPLEDLEADVIEAGDVE ; retrieve measured dCas9 with SSAP activity (normalized).
Found: −1.071
